# target-or-test-system: Proto-oncogene tyrosine-protein kinase ROS (Homo sapiens)
# assay-conditions: at 1 µM
experimental-endpoint: residual activity
# output: number + unit

[
  {
    "cpd-smiles": "c1ccc2c(-c3ccncc3)c[nH]c2c1",
    "residual activity": "88%"
  },
  {
    "cpd-smiles": "CN(C)c1ccc(/C=C2\\C(=O)Nc3ccccc32)cc1",
    "residual activity": "106%"
  },
  {
    "cpd-smiles": "Cc1cncc2cccc(S(=O)(=O)N3CCCN(C(=O)CN)C[C@H]3C)c12",
    "residual activity": "90%"
  },
  {
    "cpd-smiles": "O=C(Nc1cccc(Nc2nccc(Nc3cccc(C(F)(F)F)c3)n2)c1)C1CC1",
    "residual activity": "102%"
  },
  {
    "cpd-smiles": "O=C1NC(=O)c2c1c1c3ccccc3[nH]c1c1[nH]c3cc(Br)ccc3c21",
    "residual activity": "102%"
  }
]

Request the reported residual activity associated with O=C1Nc2cc(Br)ccc2/C1=C1/Nc2ccccc2/C1=N\O
90%
